Please respond with reported Ki for every item in the list.
Target: α-isopropylmalate synthase LeuA1 (Mortierella alpina)
Construct: gene BGZ70_001638; N-terminally His6-tagged LeuA1
Experiment: continuous DTNB assay of CoA release with purified recombinant enzyme
Type: biochemical
Conditions: read-out: KI

[ask] Please give the measured Ki for this compound: CC(C)C[C@H](N)C(=O)O [Leu, L-leucine]
[reply] 53 µM

[ask] Please give the measured Ki for this compound: CC(C)CC(=O)C(=O)O [KIC, α-ketoisocaproate]
[reply] 293 µM

* * *

Biological target: α-isopropylmalate synthase LeuA1 (Mortierella alpina, UniProt A0A9P6IVH7)
Construct: gene BGZ70_001638; N-terminally His6-tagged LeuA1
Sequence (A0A9P6IVH7 entry or part of it): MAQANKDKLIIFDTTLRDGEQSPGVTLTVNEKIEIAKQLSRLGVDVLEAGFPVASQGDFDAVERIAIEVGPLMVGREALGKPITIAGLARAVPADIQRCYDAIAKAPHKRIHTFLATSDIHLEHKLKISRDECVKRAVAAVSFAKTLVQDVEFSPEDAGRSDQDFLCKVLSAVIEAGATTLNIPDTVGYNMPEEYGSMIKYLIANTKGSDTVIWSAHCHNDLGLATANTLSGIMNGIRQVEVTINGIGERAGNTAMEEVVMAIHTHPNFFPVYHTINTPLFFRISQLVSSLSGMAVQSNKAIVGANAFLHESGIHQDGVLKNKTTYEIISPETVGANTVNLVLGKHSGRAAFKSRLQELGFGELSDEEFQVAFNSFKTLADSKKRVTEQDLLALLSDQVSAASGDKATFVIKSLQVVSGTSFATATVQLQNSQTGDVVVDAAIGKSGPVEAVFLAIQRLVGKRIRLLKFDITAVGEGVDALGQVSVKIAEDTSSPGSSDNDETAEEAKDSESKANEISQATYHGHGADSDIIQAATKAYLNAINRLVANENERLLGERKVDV
Experiment: continuous DTNB assay of CoA release with purified recombinant enzyme
Assay type: biochemical
outcome.measure: Ki (µM)
Quick note: give the figure in µM, leave out the unit.

[ask] Please give the measured Ki for this compound: "CCC(=O)SCCNC(=O)CCNC(=O)[C@H](O)C(C)(C)COP(=O)(O)OP(=O)(O)OC[C@H]1O[C@@H](n2cnc3c(N)ncnc32)[C@H](O)[C@@H]1OP(=O)(O)O"
[reply] 320
